tested on: lacZ under control of the tetA promoter (PtetA) in E. coli KM3; format: cell-based; conditions: Table 6, reverse repressor hits; metsulfuron, same plate assay format (20 ppm)
value_type: relative β-galactosidase activity, inducer Ms

{"columns": ["molecule", "recorded_number"],
 "data": [
  ["L1-34: library L1 hit with reverse repressor activity (SEQ ID NO: 1206-1213) (protein, rSuR L1-34) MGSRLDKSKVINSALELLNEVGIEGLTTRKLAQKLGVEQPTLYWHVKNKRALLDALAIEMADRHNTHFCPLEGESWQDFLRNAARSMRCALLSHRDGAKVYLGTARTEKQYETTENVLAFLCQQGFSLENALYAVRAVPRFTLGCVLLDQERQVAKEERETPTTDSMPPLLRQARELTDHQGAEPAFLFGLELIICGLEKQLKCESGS", 1.47],
  ["L1-36: library L1 hit with reverse repressor activity (SEQ ID NO: 1206-1213) (protein, rSuR L1-36) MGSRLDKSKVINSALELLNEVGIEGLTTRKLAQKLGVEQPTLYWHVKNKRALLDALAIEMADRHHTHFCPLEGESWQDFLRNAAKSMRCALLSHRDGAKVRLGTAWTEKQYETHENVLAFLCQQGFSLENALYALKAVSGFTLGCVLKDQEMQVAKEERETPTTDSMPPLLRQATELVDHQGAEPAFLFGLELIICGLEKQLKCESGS", 0.38],
  ["L1-21: library L1 hit with reverse repressor activity (SEQ ID NO: 1206-1213) (protein, rSuR L1-21) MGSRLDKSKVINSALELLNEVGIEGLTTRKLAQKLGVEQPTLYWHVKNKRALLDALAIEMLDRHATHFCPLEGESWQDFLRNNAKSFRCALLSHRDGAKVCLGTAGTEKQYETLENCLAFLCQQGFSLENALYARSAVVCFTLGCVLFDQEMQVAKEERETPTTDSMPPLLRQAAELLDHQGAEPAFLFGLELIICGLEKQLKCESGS", 0.89],
  ["L1-33: library L1 hit with reverse repressor activity (SEQ ID NO: 1206-1213) (protein, rSuR L1-33) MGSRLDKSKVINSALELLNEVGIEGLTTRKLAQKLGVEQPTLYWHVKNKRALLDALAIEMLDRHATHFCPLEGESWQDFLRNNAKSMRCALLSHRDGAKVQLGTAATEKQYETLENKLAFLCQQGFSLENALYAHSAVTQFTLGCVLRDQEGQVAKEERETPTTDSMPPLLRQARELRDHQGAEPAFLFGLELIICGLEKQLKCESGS", 4.29]
]}
